target: Gag-Pol polyprotein (Human immunodeficiency virus type 1 group M subtype B (isolate NY5)); experiment: Capsid Assembly Assay
Cut-off 900 nM on IC50: below means satisfied, at or above means not satisfied.

Below are worked cases with known answers.
O=C(O)c1ccc(-c2ccc3c(c2)nc(-c2c[nH]nc2-c2ccc(Cl)c(Cl)c2)n3CCCNC2CCCCC2)cc1 [Benzimidazole Inhibitor, 6]: satisfied
CN(C)CCCn1c(-c2c[nH]nc2-c2ccccc2)nc2cc(-c3ccc(C(=O)O)cc3)ccc21 [Benzimidazole Inhibitor, 1]: not satisfied
O=C(O)c1ccc(-c2ccc3c(c2)nc(-c2c[nH]nc2-c2ccc(C(F)(F)F)cc2)n3CCCn2ccnc2)cc1 [Benzimidazole Inhibitor, 3]: not satisfied

Lookup: Lab log: compare recorded IC50 with 900 nM; is it strictly lower for CN(C)CCCn1c(-c2c[nH]nc2-c2ccc(C(F)(F)F)cc2)nc2cc(-c3ccc(C(=O)O)cc3)ccc21 [Benzimidazole Inhibitor, 2] ?
Found: not satisfied

Lookup: Please give the result for O=C(O)c1ccc(-c2ccc3c(c2)nc(-c2c[nH]nc2-c2cccc(Cl)c2)n3CCCn2ccnc2)cc1 [Benzimidazole Inhibitor, 4] too.
Found: not satisfied

Lookup: Now give it for O=C(O)c1ccc(-c2ccc3c(c2)nc(-c2c[nH]nc2-c2ccc(C(F)(F)F)cc2)n3CCCN2CCCCC2)cc1 [Benzimidazole Inhibitor, 5] too.
Found: satisfied

---

target: Gag-Pol polyprotein (Human immunodeficiency virus type 1 group M subtype B (isolate NY5)); test: Capsid Assembly Assay
Item-by-item account of Kd
Respond with the bare value in µM.

CN(C)CCCn1c(-c2c[nH]nc2-c2ccccc2)nc2cc(-c3ccc(C(=O)O)cc3)ccc21 [Benzimidazole Inhibitor, 1]: 43
O=C(O)c1ccc(-c2ccc3c(c2)nc(-c2c[nH]nc2-c2ccc(C(F)(F)F)cc2)n3CCCn2ccnc2)cc1 [Benzimidazole Inhibitor, 3]: 8
CN(C)CCCn1c(-c2c[nH]nc2-c2ccc(C(F)(F)F)cc2)nc2cc(-c3ccc(C(=O)O)cc3)ccc21 [Benzimidazole Inhibitor, 2]: 4.3

Lab note: next compound to report on.
Lookup: Item under review: O=C(O)c1ccc(-c2ccc3c(c2)nc(-c2c[nH]nc2-c2ccc(Cl)c(Cl)c2)n3CCCNC2CCCCC2)cc1 [Benzimidazole Inhibitor, 6] . Reported Kd?
Found: 0.5
